// reported GI50 per item
Tested on: HCT-116
Assay Method Text: Antiproliferative activity against human HCT-116 cells assessed as cell growth inhibition incubated for 72 hrs by MTT assay
Assay type: functional
Unit µM implied. Number only.

Known GI50 results, listed for orientation:
> print(dat)
                            smiles.notation  assay.readout  result.units  experimental.result
1  O=C1/C(=N\Nc2nccs2)C(c2ccccc2)=NN1c1nc(-c2ccccc2)cs1           GI50            µM                 12.5
2  CC(C)(C)OC(=O)N1CCC2(CC1)CN(C(=O)c1ccc(N3N=C(c4ccccc4)/C(=N\Nc4ccccc4)C3=O)cc1)C2           GI50            µM                 17.7
3  CC1CCN(C(=O)c2cccc(N3N=C(c4ccccc4)/C(=N/Nc4ccccc4)C3=O)c2)CC1           GI50            µM                 3.44

Let us examine a further case.
Input line: Given `COc1cc(N/N=C2\C(=O)N(c3ccc(C(=O)N4CCC(N(C)C)CC4)cc3)N=C2c2ccccc2)cc(OC)c1OC` , respond with its GI50.
Output line: 5.51

###

Test system: PC-3
Assay Method Text: Antiproliferative activity against human PC-3 cells assessed as cell growth inhibition incubated for 72 hrs by MTT assay
Assay type: functional
Assay Readout: GI50

Below, 2 compounds whose answers are already recorded.
> print(dat)
                            smiles.notation  experimental.result
1  CN1CCN(C(=O)c2ccc(N3N=C(c4ccccc4)/C(=N/Nc4ccccc4)C3=O)cc2)CC1              > 50 µM
2  CN(C)C(=O)c1ccc(N2N=C(c3ccccc3)/C(=N/Nc3ccccc3)C2=O)cc1              > 50 µM

Please examine the following record next.
Input line: Using the record for `O=C(c1ccc(N2N=C(c3ccccc3)/C(=N/Nc3ccccc3)C2=O)cc1)N1CCNCC1` , state its measured GI50.
Output line: > 50 µM

###

Tested on: PC-3
Assay Method Text: Antiproliferative activity against human PC-3 cells assessed as cell growth inhibition incubated for 72 hrs by MTT assay
Assay type: functional
Assay Readout: GI50

Input line: Tell me GI50 reported for `O=C(c1ccc(N2N=C(c3ccccc3)/C(=N/Nc3ccccc3)C2=O)cc1)N1CCCCC1`
Output line: > 50 µM

Input line: Give the reported value of GI50 for this record: `CN(C)C1CCN(C(=O)c2ccc(N3N=C(c4ccccc4)/C(=C/NCc4ccccc4)C3=O)cc2)CC1`
Output line: > 20 µM

Input line: Answer with the recorded GI50 of `CN(C)C1CCN(C(=O)c2ccc(N3N=C(c4ccccc4)C(=C4CCN(C(=O)c5ccc(O)cc5)CC4)C3=O)cc2)CC1` only.
Output line: > 50 µM

###

System: HCT-116
Assay Method Text: Antiproliferative activity against human HCT-116 cells assessed as cell growth inhibition incubated for 72 hrs by MTT assay
Type: functional
Assay Readout: GI50

> print(dat)
                            smiles.notation  assay.readout  experimental.result
1  CN(C)C1CCN(C(=O)c2ccc(N3N=C(c4ccccc4)CC3=O)cc2)CC1           GI50              > 50 µM

Input line: Please list GI50 recorded for the compound `CN(C)C1CCN(C(=O)c2ccc(N3N=C(c4ccccc4)/C(=N/Nc4ccc(OCc5ccccc5)cc4)C3=O)cc2)CC1`
Output line: > 20 µM

Input line: Return value of GI50 for input `O=C(c1ccc(N2N=C(c3ccccc3)/C(=N/Nc3ccccc3)C2=O)cc1)N1CCNCC1` , no commentary.
Output line: > 50 µM

These entries and their values trace back to ChEMBL document CHEMBL5325413.
